# ASSAY_INFO: budding yeast growth modifiers under rapamycin – strain BY4716, OD600, 96 h, primary screen (AID 1091); note: test concentration not given here
# CONDITION_DETAILS: S. cerevisiae BY4716 + rapamycin, called active from +8 up or from −8 down
Active and inactive are the calls of the source.
Outcome codes: 1 (yes) for active, 0 (no) for inactive

>>> df
                                   compound      cat
0  CCCCCCc1nc(-c2ccc(-c3ccc(Cl)c(Cl)c3)o2)cc2c1[Si](C(C)C)(C(C)C)OC2   0 (no)
1  CCCNC(=O)[C@@]1(Sc2ccc(C)cc2)CC(=O)N(Cc2ccccc2Cl)[C@@H]1c1ccc(CO)cc1I   0 (no)
2  CC(=O)NCCCC[C@@H]1NC(=O)[C@H]2C[C@@H](C(=O)NCCCCCCNC(=O)CS)[C@@H](c3cccc(OCCO)c3)N2C1=O   0 (no)
3  CN(C)C(=O)[C@@]1(Cc2ccccc2CN=[N+]=[N-])COC(c2ccc(OCCCO)cc2)=N1  1 (yes)
4  CC1CC/C=C\[C@H]2OC34C=CCN(c5ccc6ccccc6c5)C(=O)[C@H]3N(C(C)CO)C(=O)[C@@H]4C2C(=O)O1 (some centres not stated)   0 (no)
5  CCOC(=O)c1cn(C[C@H](Cc2ccccc2)NC(=O)N[C@H](CO)CCc2oc(C(C)=O)c(C(=O)OC)c2C(=O)OC)nn1   0 (no)
6  COCCOC(=O)N1C(=O)[C@@]2(c3ccccc31)[C@H](c1ccc(O)cc1)N1[C@H](c3ccccc3)[C@H](c3ccccc3)OC(=O)[C@H]1[C@@H]2C(=O)N1CCCCCCC1   0 (no)
